STUDY_TARGET: E. coli gyrase (Escherichia coli, UniProt P0AES4+P0AES6)
PROTOCOL_NOTES: biochemical
STUDY_CONDITIONS: supercoiling of relaxed pBR322, 30 minutes at 37° C.
Where a name gives a salt, the structure may show the parent alone.
EXPERIMENTAL_ENDPOINT: IC50 (nM)

[
  {
    "MOLECULE": "Cc1c(N2CCC(C(C)O)C2)c(F)cn2c(=O)n(N)c(=O)c(C3CC3)c12 (stereo not shown)",
    "STUDY_TARGET": "E. coli gyrase (Escherichia coli, UniProt P0AES4+P0AES6)",
    "REPORTED": 1200
  },
  {
    "MOLECULE": "Cc1c(N2CCCC2)c(F)cn2c(=O)n(N)c(=O)c(C3CC3)c12",
    "STUDY_TARGET": "E. coli gyrase (Escherichia coli, UniProt P0AES4+P0AES6)",
    "REPORTED": 1700
  },
  {
    "MOLECULE": "Cc1c(N2CC[C@@H](C3(N)CC3)C2)c(F)cn2c(=O)n(N)c(=O)c(C3CC3)c12",
    "STUDY_TARGET": "E. coli gyrase (Escherichia coli, UniProt P0AES4+P0AES6)",
    "REPORTED": 640
  },
  {
    "MOLECULE": "Cc1c(N2CC(C(C)N)C(C)(C)C2)c(F)cn2c(=O)n(N)c(=O)c(C3CC3)c12 (stereo not shown) [Compound 5c, hydrochloride]",
    "STUDY_TARGET": "E. coli gyrase (Escherichia coli, UniProt P0AES4+P0AES6)",
    "REPORTED": 700
  },
  {
    "MOLECULE": "Cc1c(N2CC[C@@H]([C@H](C)N)C2)c(F)cn2c(=O)n(N)c(=O)c(C3CC3)c12.Cl [Compound 5b, hydrochloride]",
    "STUDY_TARGET": "E. coli gyrase (Escherichia coli, UniProt P0AES4+P0AES6)",
    "REPORTED": 500
  },
  {
    "MOLECULE": "CN[C@@H](C)[C@@H]1CCN(c2c(F)cn3c(=O)n(N)c(=O)c(C4CC4)c3c2C)C1",
    "STUDY_TARGET": "E. coli gyrase (Escherichia coli, UniProt P0AES4+P0AES6)",
    "REPORTED": 1000
  },
  {
    "MOLECULE": "Cc1c(N2C[C@H](CN)[C@H](F)C2)c(F)cn2c(=O)n(N)c(=O)c(C3CC3)c12 (racemic)",
    "STUDY_TARGET": "E. coli gyrase (Escherichia coli, UniProt P0AES4+P0AES6)",
    "REPORTED": 1500
  }
]
